- study_target: Inadl_1, Q8NI35
- Sequence (Q8NI35 113-229): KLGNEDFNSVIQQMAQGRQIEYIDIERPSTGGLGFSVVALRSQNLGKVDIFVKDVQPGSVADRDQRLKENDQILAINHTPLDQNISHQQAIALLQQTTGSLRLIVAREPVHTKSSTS
- experimental_protocol: holdup assay
- Set-up: key: below the threshold = too weak to quantify, mostly under pKd 3.1 to 4
- condition_parameters: plain residues with an end cap or a label only (N-terminal biotin on a linker: ttds)
test_readout: pKd

TVASEKESVM [SLC1A5, Q15758] | 3.64
IYVPEAQTRL [DLGAP4, Q9Y2H0] | below the threshold
VLRLQSETSV [VANGL1, Q8TAA9] | below the threshold
GQDSREETQL [KCNT2, Q6UVM3] | below the threshold

[ask] Identify measured pKd associated with SSRTRRETQL [HPV16-E6, P03126]
[reply] below the threshold

[ask] Identify measured pKd associated with IDNDTESTAL [ARHGAP17, Q68EM7]
[reply] below the threshold

[ask] Identify measured pKd associated with STLTIFETAL [ABCC4, O15439]
[reply] 3.53

[ask] Identify measured pKd associated with RSLEEEESQL [GRASP, Q7Z6J2]
[reply] below the threshold
